Biological target: CAT-1 (carnitine acyltransferase 1) (Rattus norvegicus)
Construct: This preparation is used as the isolated mitochondrial preparation; from tissue; host or cells: rat heart (atria removed), isolated mitochondria
Sequence (Q63704 1-772): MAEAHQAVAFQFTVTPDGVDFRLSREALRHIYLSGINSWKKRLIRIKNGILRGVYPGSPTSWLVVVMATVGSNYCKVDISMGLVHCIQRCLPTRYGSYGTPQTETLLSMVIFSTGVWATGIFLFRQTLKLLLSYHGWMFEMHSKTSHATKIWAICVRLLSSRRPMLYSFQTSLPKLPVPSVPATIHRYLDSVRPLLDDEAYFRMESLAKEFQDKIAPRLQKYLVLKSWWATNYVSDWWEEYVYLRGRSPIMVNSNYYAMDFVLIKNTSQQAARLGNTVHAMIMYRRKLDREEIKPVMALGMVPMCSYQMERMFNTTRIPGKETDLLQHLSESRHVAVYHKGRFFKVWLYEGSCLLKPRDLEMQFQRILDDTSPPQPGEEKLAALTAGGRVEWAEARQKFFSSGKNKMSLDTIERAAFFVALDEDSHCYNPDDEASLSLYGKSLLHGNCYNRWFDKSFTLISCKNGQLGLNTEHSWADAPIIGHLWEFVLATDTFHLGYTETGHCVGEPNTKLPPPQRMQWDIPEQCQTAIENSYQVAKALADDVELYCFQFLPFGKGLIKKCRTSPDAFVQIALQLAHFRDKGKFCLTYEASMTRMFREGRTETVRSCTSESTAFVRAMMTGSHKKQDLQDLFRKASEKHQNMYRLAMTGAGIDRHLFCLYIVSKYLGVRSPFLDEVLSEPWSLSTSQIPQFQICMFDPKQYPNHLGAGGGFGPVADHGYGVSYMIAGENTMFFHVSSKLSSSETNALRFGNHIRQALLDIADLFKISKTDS
Test: Secondary Screen--Inhibition of CAT-1 in intact cardiac myocytes (hypoxia-induced increase in long-chain acylcarnitines)
Assay type: cell-based
Details: isolated rat cardiac myocytes, 50% inhibition of hypoxia-induced increase in long-chain acylcarnitines
Consider the following molecules; for each one, report its pIC50.
Notebook: values listed as pIC50 are -log10 of the concentration (mol/L).

What value of pIC50 has been reported for the following molecule? O=C(O)C(=O)c1ccc(OCCOc2ccc3ccccc3c2)c(Cl)c1 [Example 185]
4.92

Query: pIC50; subject: CO/N=C(\C(=O)O)c1ccc(OCCOc2ccc3ccccc3c2)s1 [Example 307]
5.30

Reported pIC50 for O=C(O)C(=O)c1ccc(OCCCC(=O)c2ccc3ccccc3c2)cc1 [Example 282] : what is it?
5.10

----------
Target: CAT-1 (carnitine acyltransferase 1) (Rattus norvegicus, UniProt Q63704)
Construct: This preparation is used as the isolated mitochondrial preparation; from tissue; host or cells: rat heart (atria removed), isolated mitochondria
Assay: Primary Screen--Inhibition of CAT-1 in isolated mitochondria
Assay type: biochemical
Conditions: rat heart mitochondria, reduction of palmitoyl carnitine formation by 50%; read-out: Primary Screen IC50
result-type: pIC50
pIC50 is defined as minus the log10 of a concentration measured in mol/L.

Query the reported pIC50 for CAT-1 (carnitine acyltransferase 1) (Rattus norvegicus, UniProt Q63704); item: CCCc1c(OCCCOc2ccc(C(=O)C(=O)O)cc2)ccc(C(C)=O)c1O
6.42

Reported pIC50 for CAT-1 (carnitine acyltransferase 1) (Rattus norvegicus, UniProt Q63704), given O=C(O)C(=O)c1ccc(OCCOc2ccc3ccccc3c2)s1 ?
7.30

GET /values?readout=pIC50&system=CAT-1 (carnitine acyltransferase 1) (Rattus norvegicus, UniProt Q63704)&item= O=C(O)C(=O)c1ccc(OCC(=O)C2CCCCCCC2)cc1
6.00

// lookup pIC50 | system=CAT-1 (carnitine acyltransferase 1) (Rattus norvegicus, UniProt Q63704) | key= O=C(O)C(=O)c1ccc(OCCOC2CCc3ccccc3C2)cc1 (racemic)
5.55

Hi! What's the reported pIC50 for O=C(O)C(=O)c1ccc(OCCCc2ccc(F)cc2)cc1 on CAT-1 (carnitine acyltransferase 1) (Rattus norvegicus, UniProt Q63704)?
5.52

Look up pIC50 with CAT-1 (carnitine acyltransferase 1) (Rattus norvegicus, UniProt Q63704) for this compound: O=C(O)C(=O)c1ccc(OCCOc2ccc(-c3ccccc3)cc2)cc1
5.30

// lookup pIC50 | system=CAT-1 (carnitine acyltransferase 1) (Rattus norvegicus, UniProt Q63704) | key= Cc1cc(C(=O)C(=O)O)ccc1OCCOc1ccc2ccccc2c1
6.40

Write down the reported pIC50 of O=C(O)C(=O)c1ccc(OCCOc2ccc3cccnc3c2)cc1 [Example 127, monohydrate] , test system: CAT-1 (carnitine acyltransferase 1) (Rattus norvegicus, UniProt Q63704).
6.59

----------
Target: CAT-1 (carnitine acyltransferase 1) (Rattus norvegicus, UniProt Q63704)
Construct: This preparation is used as the isolated mitochondrial preparation; from tissue; host or cells: rat heart (atria removed), isolated mitochondria
Experiment: Primary Screen--Inhibition of CAT-1 in isolated mitochondria
Assay type: biochemical
Details: rat heart mitochondria, reduction of palmitoyl carnitine formation by 50%; read-out: Primary Screen IC50
Please provide measured IC50 for the entries that follow.
Write the number in nM without appending the unit.

# lookup: IC50 of CN(C)/N=C(/C(=O)O)c1ccc(OCCOc2ccc3ccccc3c2)cc1
1800

I am curious: what IC50 value has been reported for CCCc1c(OCCCOc2ccc(C(=O)C(=O)O)cc2)ccc(C(=O)OC)c1O ?
230

Please report the recorded IC50 for O=C(O)C(=O)c1ccc(OCCOC23CC4CC(CC(C4)C2)C3)cc1 .
1500

----------
Biological target: CAT-1 (carnitine acyltransferase 1) (Rattus norvegicus, UniProt Q63704)
Construct: This preparation is used as the isolated mitochondrial preparation; from tissue; host or cells: rat heart (atria removed), isolated mitochondria
Experiment: Primary Screen--Inhibition of CAT-1 in isolated mitochondria
Format: biochemical
Conditions: rat heart mitochondria, reduction of palmitoyl carnitine formation by 50%; read-out: Primary Screen IC50
Where a name gives a salt, the structure may show the parent alone.
result-type: IC50
The answer should read as a number with its unit following.

Suppose we examine the molecule CC(C)(C)c1ccc(C(=O)COc2ccc(C(=O)C(=O)O)cc2)cc1 ; what IC50 value has been reported?
0.3 µM

Entry O=C(O)C(F)(F)c1ccc(OCCOc2ccc3ccccc3c2)cc1 has what IC50?
1.75 µM

So what's the measured IC50 for this one? O=C(O)C(=O)c1ccc(OCCOc2ccc3ccccc3c2)cc1Cl
0.3 µM

Look up IC50: O=C(OCCOCCOCCO)C(=O)c1ccc(OCCOc2ccc3ccccc3c2)cc1
0.04 µM

Fill in the blank: the reported IC50 of CCC(C)(C)C(=O)Oc1cccc2ccc(OCCOc3ccc(C(=O)C(=O)O)cc3)cc12 is ____.
0.6 µM

# input molecule: O=C(O)C(=O)c1ccc(OCCCOc2ccccc2)cc1 ; wanted: its IC50
2 µM

Return reported IC50; argument: O=C(O)C(=O)c1ccc(OCC(=O)N2CCc3ccccc3C2)cc1
0.4 µM

# input molecule: NS(=O)(=O)c1ccc(OCCOc2ccc(C(=O)C(=O)O)cc2)cc1 ; wanted: its IC50
4 µM

Any idea what its IC50 is? The molecule is O=C(O)C(=O)c1ccc(OCCOc2ccc3ccccc3c2)c(Cl)c1
0.08 µM

Quick one: IC50 of CCC(C)(C)C(=O)OCc1cccc(C)c1/C=C\COc1ccc(C(=O)C(=O)O)cc1 ?
2 µM

Given the entry O=C(O)C(=O)c1ccc(OCCCCCCOc2ccccc2)cc1 , report its measured IC50.
10 µM

Reported IC50, molecule CN(C)/N=C(\C(=O)O)c1ccc(OCCOc2ccc3ccccc3c2)cc1 : ____
6.5 µM

Endpoint output: IC50 of O=C(O)C(=O)c1ccc(OCCCCOc2ccccc2)cc1 . Value?
0.4 µM

Tell me the measured IC50 of Cc1cc(C)c(C(=O)COc2ccc(C(=O)C(=O)O)cc2)c(C)c1 , please.
4.5 µM

For the molecule shown here, O=C(O)/C(=N\O)c1ccc(OCCOc2ccc3ccccc3c2)cc1 , give the reported IC50.
0.58 µM

Given the molecule O=C(O)C(=O)c1ccc(OC/C=C/c2ccc(F)cc2)cc1 , what is its reported IC50?
0.25 µM

For O=C(O)C(=O)c1ccc(OCCOc2cc3ccccc3cc2OCCO)cc1 , what is its reported IC50?
0.25 µM

# get_value(readout='IC50', item= O=C(O)C(=O)c1ccc(OCCCCOc2ccc3ccccc3c2)cc1 )
0.17 µM

Query (molecule): CC1(C)OCC(COC(=O)C(=O)c2ccc(OCCOc3ccc4ccccc4c3)cc2)O1 (racemic) ; field requested: IC50
3.5 µM

What measured IC50 goes with CCC(C)(C)C(=O)OCc1cccc(C)c1OCCOc1ccc(C(=O)C(=O)O)cc1 [Example 136, hydrate] ?
7.7 µM

Reported IC50 for CCC(C)(C)C(=O)OCc1cccc(C)c1OCCOc1ccc([C@H](N)C(=O)O)cc1 : what is it?
2.5 µM

If you can, please state the reported IC50 value of O=C(O)C(=O)c1c(Cl)cc(OCCOc2ccc3ccccc3c2)cc1Cl .
6.7 µM

I'd like to know its IC50. The molecule in question is O=C(O)C(=O)c1ccc(OCCSc2ccc3ccccc3c2)cc1
0.27 µM

I'd like to know its IC50. The molecule in question is CCC(C)(C)C(=O)OCc1cccc(C)c1OCCOc1ccc(/C(=N/OC)C(=O)O)cc1
3.3 µM

Entry under review: N[C@H](C(=O)O)c1ccc(OCCOC2CCCCCCC2)cc1 [Example 18, hydrochloride] . Reported IC50?
37.4 µM

Dear colleague, I am looking for the recorded IC50 of the following molecule: O=C(O)C(=O)c1ccc([S+]([O-])CCOc2ccc3ccccc3c2)cc1 (racemic)
5.5 µM

IC50 lookup needed for CCC(C)(C)C(=O)OCc1cccc(C)c1OCCSc1ccc(C(=O)C(=O)O)cc1 , thanks.
0.5 µM

Return reported IC50; argument: CCC(C)(C)C(=O)OCc1cccc(C)c1C#CCOc1ccc(C(=O)C(=O)O)cc1
0.47 µM

Bench note: what IC50 did O=C(O)C(=O)c1ccc(OCC(=O)N2CCOCC2)cc1 show?
12 µM
